# System Name: UniProt Q6RI86
# Sequence (Q6RI86 whole entry): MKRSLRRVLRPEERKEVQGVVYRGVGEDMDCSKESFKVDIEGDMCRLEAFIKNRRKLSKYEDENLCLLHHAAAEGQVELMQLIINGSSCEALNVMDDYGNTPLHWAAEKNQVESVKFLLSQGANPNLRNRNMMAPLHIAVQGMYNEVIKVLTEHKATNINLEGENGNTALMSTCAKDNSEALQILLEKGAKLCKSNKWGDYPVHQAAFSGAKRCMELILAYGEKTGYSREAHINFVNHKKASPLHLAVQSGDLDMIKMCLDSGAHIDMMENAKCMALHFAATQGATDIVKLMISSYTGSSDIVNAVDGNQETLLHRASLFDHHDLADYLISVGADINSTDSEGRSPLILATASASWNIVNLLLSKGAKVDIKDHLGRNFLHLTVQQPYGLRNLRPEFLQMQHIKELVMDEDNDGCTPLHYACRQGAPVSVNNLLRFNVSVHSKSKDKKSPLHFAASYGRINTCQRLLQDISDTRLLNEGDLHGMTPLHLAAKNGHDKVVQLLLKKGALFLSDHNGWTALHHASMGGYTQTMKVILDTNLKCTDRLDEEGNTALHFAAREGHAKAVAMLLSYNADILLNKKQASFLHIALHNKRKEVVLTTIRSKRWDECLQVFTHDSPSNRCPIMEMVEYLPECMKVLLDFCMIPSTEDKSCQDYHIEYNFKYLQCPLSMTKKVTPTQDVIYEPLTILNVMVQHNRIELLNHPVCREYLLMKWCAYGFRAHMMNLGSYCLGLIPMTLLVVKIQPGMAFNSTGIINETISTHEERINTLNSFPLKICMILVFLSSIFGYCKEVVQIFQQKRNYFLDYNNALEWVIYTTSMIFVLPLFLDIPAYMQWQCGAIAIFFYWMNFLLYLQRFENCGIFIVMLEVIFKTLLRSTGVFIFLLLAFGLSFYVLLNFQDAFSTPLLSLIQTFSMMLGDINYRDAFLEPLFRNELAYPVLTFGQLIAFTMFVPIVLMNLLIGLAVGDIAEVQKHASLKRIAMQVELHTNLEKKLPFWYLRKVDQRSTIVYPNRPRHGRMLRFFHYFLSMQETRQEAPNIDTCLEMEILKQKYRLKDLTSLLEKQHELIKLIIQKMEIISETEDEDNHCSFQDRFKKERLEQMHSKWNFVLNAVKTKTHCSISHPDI
# Measurement Description: Antagonist activity against rat TRPA1 expressed in HEK293 cells assessed as inhibition of AITC-induced increase in intracellular Ca2+ concentration by Fluo-4-AM dye based spectrofluorimetry
pIC50: −log10 of the molar value.
Measurement Name: pIC50

Use the examples below as a reference point.
[
  {
    "Compound": "CC(C)=CCC/C(C)=C/COC(=O)c1ccc(C#N)cc1",
    "System Name": "UniProt Q6RI86",
    "pIC50": 6.14
  },
  {
    "Compound": "CC(C)=CCC/C(C)=C\\COC(=O)Cc1cccc(I)c1",
    "System Name": "UniProt Q6RI86",
    "pIC50": 6.03
  },
  {
    "Compound": "CC(C)=CCC/C(C)=C/COC(=O)Cc1ccc(Cl)cc1",
    "System Name": "UniProt Q6RI86",
    "pIC50": 6.89
  }
]

A = CC(C)=CCC/C(C)=C\COC(=O)CCc1ccccc1
B = CC(=O)OC/C=C(\C)CCC=C(C)C [GERANYL ACETATE]
Smaller pIC50 value? Options are A and B Lab log: write the label of the selected item as the result.
B
